The entries below are paired with their reported phenotypic distance.
- Test system: E34 (patient-derived glioblastoma stem cells of proneural subtype)
- Protocol Text: phenotypic distance (Euclidean, principal components) from DMSO controls (arbitrary units); higher = stronger morphological change;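 note: cell Painting imaging in 384-well plates, CellProfiler features reduced to at least 20 principal components, Euclidean distance versus same-plate DMSO vehicle wells (0.1% v/v), median over six images per well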
- Test Parameters: 111.1 nM; exposure time: 72 h
Structures can show the parent of a compound that is named as a salt.

| Molecule | phenotypic distance |
| --- | --- |
| OC(c1cc(C(F)(F)F)nc2c(C(F)(F)F)cccc12)C1CCCCN1 (configuration not stated) [Mefloquine hydrochloride] | 0.475 |
| Cc1c2ccncc2c(C)c2c1[nH]c1ccccc12 | 0.978 |
| COc1cccc2c(NCc3ccccc3)nc(-n3c(N)nc4ccccc43)nc12 | 0.587 |
| Nc1nc2n[nH]nc2c(=O)[nH]1 | 0.809 |
| Nc1ccn([C@@H]2O[C@H](CO)[C@@H](O)C2(F)F)c(=O)n1 [Gemcitabine HCl] | 4.74 |
| COc1cc2ncnc(Nc3cccc(Br)c3)c2cc1OC | 1.03 |
| O=C(/C=C/c1cccnc1)NCCCCC1CCN(C(=O)c2ccccc2)CC1 | 1.6 |
| CO[C@H]1C(=O)[C@]2(C)[C@@H](OC)C[C@H]3OC[C@@]3(OC(C)=O)[C@H]2[C@H](OC(=O)c2ccccc2)[C@]2(O)C[C@H](OC(=O)[C@H](O)[C@@H](NC(=O)OC(C)(C)C)c3ccccc3)C(C)=C1C2(C)C | 4.8 |
| CCC(C)n1ncn(-c2ccc(N3CCN(c4ccc(OCC5COC(Cn6cncn6)(c6ccc(Cl)cc6Cl)O5)cc4)CC3)cc2)c1=O (configuration not stated) | 0.692 |
| C[C@H](Cc1cc2c(c(C(N)=O)c1)N(CCCO)CC2)NCCOc1ccccc1OCC(F)(F)F | 2.26 |
| Nc1ncn(C2OC(CO)C(O)C2O)c(=O)n1 (configuration not stated) | 0.835 |
| COc1cc(N)c(Cl)cc1C(=O)NC1CCN(CCCOc2ccc(F)cc2)CC1OC (configuration not stated) [Cisapride] | 0.904 |
| CN(C(=O)CN(CCO)CC(=O)N(C)C(C)(C)Cc1ccccc1)C(C)(C)Cc1ccccc1 | 0.716 |
| C=C[C@H]1CN2CC[C@H]1C[C@@H]2[C@@H](O)c1ccnc2ccc(OC)cc12 [Quinidine hydrochloride monohydrate] | 0.841 |
| CCOC(=O)OC(C)OC1=C(C(=O)Nc2ccccn2)N(C)S(=O)(=O)c2ccccc21 (configuration not stated) | 0.762 |
| Cc1ncc(CO)c(CO)c1O [Pyridoxine hydrochloride] | 1.16 |
| Cc1cc(CN2CCN(c3c(Br)cnc4nc(-c5ccc(N6CCN(C)CC6)cc5)[nH]c34)CC2)no1 | 0.728 |

* * *

- System: E28 (patient-derived glioblastoma stem cells of classical subtype)
- Protocol Text: phenotypic distance (Euclidean, principal components) from DMSO controls (arbitrary units); higher = stronger morphological change
- Test Parameters: 333.3 nM; exposure time: 72 h
Structures can show the parent of a compound that is named as a salt.
The entries below are paired with their reported phenotypic distance.

| Compound | phenotypic distance |
| --- | --- |
| C/C(=C\c1csc(C)n1)[C@@H]1C[C@@H]2O[C@]2(C)CCC[C@H](C)[C@H](O)[C@@H](C)C(=O)C(C)(C)[C@@H](O)CC(=O)N1 [Ixabepilone] | 4.09 |
| COC(=O)C1=C(C)NC(C)=C(C(=O)OCC(C)C)C1c1ccccc1[N+](=O)[O-] (stereo not drawn) | 0.997 |
| CCn1cc(-c2ccnc3[nH]c(-c4cccc(CN(C)C)c4)cc23)c(-c2ccc(NC(=O)N(C)C)cc2)n1 | 2.57 |
| CCCCCCNC(=O)n1cc(F)c(=O)[nH]c1=O | 0.775 |
| S=c1[nH]cnc2nc[nH]c12 | 0.395 |
| Cn1nnc2c(C(N)=O)ncn2c1=O [Temozolomide] | 0.378 |
| CC[C@H]1CN2CCc3cc(OC)c(OC)cc3[C@@H]2C[C@@H]1C[C@H]1NCCc2cc(OC)c(OC)cc21 [Emetine dihydrochloride hydrate] | 3.25 |
| Cc1ccc(/C=N/NC(=O)c2n[nH]c3c2CCCC3)cc1 | 3.15 |

* * *

// reported phenotypic distance per item
- Test system: E31 (patient-derived glioblastoma stem cells of proneural subtype)
- Protocol Text: phenotypic distance (Euclidean, principal components) from DMSO controls (arbitrary units); higher = stronger morphological change
- Test Parameters: 12.3 nM; exposure time: 72 h
Counter-ions that a name gives are not always drawn.

| Compound | System | phenotypic distance |
| --- | --- | --- |
| C[C@@H](O[C@H]1OCCN(Cc2n[nH]c(=O)[nH]2)[C@H]1c1ccc(F)cc1)c1cc(C(F)(F)F)cc(C(F)(F)F)c1 [Aprepitant] | E31 | 1.23 |
| Cc1[nH]nc(C(F)(F)F)c1Cc1sc2c(c1C(=O)N1C[C@](C)(O)CO1)c(=O)n(C)c(=O)n2C(C)C | E31 | 1.17 |
| Cc1cc(/C=C/c2ccc3cc(N(C)C)ccc3[n+]2C)c(C)n1-c1ccccc1 [Pyrvinium pamoate] | E31 | 1.04 |
| Cc1c(-c2ccc(-c3ccccc3F)cc2)nc2ccc(F)cc2c1C(=O)O [Brequinar sodium salt hydrate] | E31 | 0.921 |
| Cn1nnc2c(C(N)=O)ncn2c1=O [Temozolomide] | E31 | 2.72 |
| COC(=O)C[C@](O)(CCCC(C)(C)O)C(=O)O[C@@H]1C(OC)=C[C@]23CCCN2CCc2cc4c(cc2[C@H]13)OCO4 | E31 | 2.41 |
| OC(c1cc(C(F)(F)F)nc2c(C(F)(F)F)cccc12)C1CCCCN1 (stereo unspecified) [Mefloquine hydrochloride] | E31 | 0.421 |
| NC(=O)c1ccccc1 [Benzamide] | E31 | 1.02 |
| OC[C@H]1NC[C@H](O)[C@@H](O)[C@@H]1O | E31 | 0.558 |
| CCC1=C[C@@H]2CN(C1)Cc1c([nH]c3ccccc13)[C@@](C(=O)OC)(c1cc3c(cc1OC)N(C)[C@H]1[C@@](O)(C(=O)OC)[C@H](OC(C)=O)[C@]4(CC)C=CCN5CC[C@]31[C@@H]54)C2 [Vinorelbine Tartrate] | E31 | 0.627 |
| NC(=O)c1cccc2cn(-c3ccc([C@@H]4CCCNC4)cc3)nc12 | E31 | 1.29 |
| COc1cc(OC)c(C(=O)CCCN2CCCC2)c(OC)c1 [Buflomedil hydrochloride] | E31 | 0.47 |
| CCC(C)(C)c1ccc(CC(C)CN2C[C@@H](C)O[C@@H](C)C2)cc1 (stereo partly specified) [Amorolfine hydrochloride] | E31 | 0.653 |
| Cc1ncc(CO)c(CO)c1O [Pyridoxine hydrochloride] | E31 | 0.82 |
| COc1ccc2[nH]c([S+]([O-])Cc3ncc(C)c(OC)c3C)nc2c1 (stereo unspecified) | E31 | 0.759 |
| CC(C)C[C@H](NC(=O)CNC(=O)c1cc(Cl)ccc1Cl)B(O)O | E31 | 5.68 |
| C=C(C)[C@H]1Cc2c(ccc3c2O[C@@H]2COc4cc(OC)c(OC)cc4[C@@H]2C3=O)O1 | E31 | 0.711 |
| COc1ccc2c(c1)CC[C@@H]1[C@@H]2CC[C@]2(C)[C@@H](NCCCCCCN3C(=O)CCC3=O)CC[C@@H]12 | E31 | 0.31 |
| CC(C)C[C@H](NC(=O)[C@H](CCc1ccccc1)NC(=O)CN1CCOCC1)C(=O)N[C@@H](Cc1ccccc1)C(=O)N[C@@H](CC(C)C)C(=O)[C@@]1(C)CO1 | E31 | 12.7 |
| OCCN1CCN(CCCN2c3ccccc3Sc3ccc(C(F)(F)F)cc32)CC1 [Fluphenazine dihydrochloride] | E31 | 0.671 |
| O=C(Nc1ccc([N+](=O)[O-])cc1Cl)c1cc(Cl)ccc1O [Niclosamide] | E31 | 4.78 |
| CC1CNc2c(cccc2S(=O)(=O)N[C@@H](CCCNC(=N)N)C(=O)N2CC[C@@H](C)C[C@@H]2C(=O)O)C1 (stereo partly specified) | E31 | 0.664 |
| COc1c(N2CCNC(C)C2)c(F)cc2c(=O)c(C(=O)O)cn(C3CC3)c12 (stereo unspecified) | E31 | 2.43 |
| C[C@]12CC[C@H](O)C[C@H]1CC[C@@H]1[C@@H]2C[C@@H](O)[C@]2(C)[C@@H](C3=CC(=O)OC3)CC[C@]12O | E31 | 0.764 |
| c1ccc2c(c1)[I+]c1ccccc1-2 [Diphenyleneiodonium chloride] | E31 | 1.08 |
| N=C(N)c1ccc(-c2ccc(-c3ccc(C(=N)N)cc3)o2)cc1 [Furamidine dihydrochloride] | E31 | 0.559 |
| OC[C@H]1O[C@@H](Oc2ccc(O)cc2)[C@H](O)[C@@H](O)[C@@H]1O | E31 | 0.639 |
| COc1cccc2c(NCc3ccccc3)nc(-n3c(N)nc4ccccc43)nc12 | E31 | 0.799 |
| CN1[C@@H]2CC[C@H]1CC(OC(=O)c1c[nH]c3ccccc13)C2 (stereo partly specified) [3-Tropanyl-indole-3-carboxylate hydrochloride] | E31 | 0.329 |
| Cc1ccc(/C=N/NC(=O)c2n[nH]c3c2CCCC3)cc1 | E31 | 1.07 |
| CCn1cc(C(=O)O)c(=O)c2cc(F)c(N3CCNCC3)nc21 | E31 | 0.523 |
